The values you see were collected from patent US20230235012A1.

- target-or-test-system: T1, human CTLA-4, full-length, expressed on transfected Expi293 cells (human, UniProt P16410 36-223)
- T1 construct: whole, on cells
- T1 sequence (P16410 36-223): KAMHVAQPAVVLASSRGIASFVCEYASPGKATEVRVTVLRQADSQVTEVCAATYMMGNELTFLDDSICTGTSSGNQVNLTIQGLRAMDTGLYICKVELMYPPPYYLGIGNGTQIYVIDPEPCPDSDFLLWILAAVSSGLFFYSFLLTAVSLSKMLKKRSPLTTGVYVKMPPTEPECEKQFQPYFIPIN
- assay-notes: flow cytometry, 100 nM, Expi293 cells with human CTLA-4
Entries and their measured MFI follow.
measured-quantity: MFI (MFI)

variant ICOSL IgV-Fc fusion N52R/N57W/Q100K (Fc fusion) DTQEKEVRAMVGSDVELSCACPEGSRFDLNDVYVYWQTSESKTVVTYHIPQRSSLEWVDSRYRNRALMSPAGMLRGDFSLRLFNVTPQDEQKFHCLVLSKSLGFQEVLSVEVTLHVAANFSVGSGGGGSEPKSSDKTHTCPPCPAPEAEGAPSVFLFPPKPKDTLMISRTPEVTCVVVDVSHEDPEVKFNWYVDGVEVHNAKTKPREEQYNSTYRVVSVLTVLHQDWLNGKEYKCKVSNKALPAPIEKTISKAKGQPREPQVYTLPPSREEMTKNQVSLTCLVKGFYPSDIAVEWESNGQPENNYKTTPPVLDSDGSFFLYSKLTVDKSRWQQGNVFSCSVMHEALHNHYTQKSLSLSPG; 477000
variant ICOSL IgV-Fc fusion N52R/N57F/Q100P (Fc fusion) DTQEKEVRAMVGSDVELSCACPEGSRFDLNDVYVYWQTSESKTVVTYHIPQRSSLEFVDSRYRNRALMSPAGMLRGDFSLRLFNVTPQDEQKFHCLVLSPSLGFQEVLSVEVTLHVAANFSVGSGGGGSEPKSSDKTHTCPPCPAPEAEGAPSVFLFPPKPKDTLMISRTPEVTCVVVDVSHEDPEVKFNWYVDGVEVHNAKTKPREEQYNSTYRVVSVLTVLHQDWLNGKEYKCKVSNKALPAPIEKTISKAKGQPREPQVYTLPPSREEMTKNQVSLTCLVKGFYPSDIAVEWESNGQPENNYKTTPPVLDSDGSFFLYSKLTVDKSRWQQGNVFSCSVMHEALHNHYTQKSLSLSPG; 504000
variant ICOSL IgV-Fc fusion N52S/N57M/Q100S (Fc fusion) DTQEKEVRAMVGSDVELSCACPEGSRFDLNDVYVYWQTSESKTVVTYHIPQSSSLEMVDSRYRNRALMSPAGMLRGDFSLRLFNVTPQDEQKFHCLVLSSSLGFQEVLSVEVTLHVAANFSVGSGGGGSEPKSSDKTHTCPPCPAPEAEGAPSVFLFPPKPKDTLMISRTPEVTCVVVDVSHEDPEVKFNWYVDGVEVHNAKTKPREEQYNSTYRVVSVLTVLHQDWLNGKEYKCKVSNKALPAPIEKTISKAKGQPREPQVYTLPPSREEMTKNQVSLTCLVKGFYPSDIAVEWESNGQPENNYKTTPPVLDSDGSFFLYSKLTVDKSRWQQGNVFSCSVMHEALHNHYTQKSLSLSPG; 228000
variant ICOSL IgV-Fc fusion N52H/N57Y/Q100R (Fc fusion, not shown: a dimerising Fc or GST) DTQEKEVRAMVGSDVELSCACPEGSRFDLNDVYVYWQTSESKTVVTYHIPQHSSLEYVDSRYRNRALMSPAGMLRGDFSLRLFNVTPQDEQKFHCLVLSRSLGFQEVLSVEVTLHVAANFSV; 817000
variant ICOSL IgV-Fc fusion N52T/N57H/Q100A (Fc fusion) DTQEKEVRAMVGSDVELSCACPEGSRFDLNDVYVYWQTSESKTVVTYHIPQTSSLEHVDSRYRNRALMSPAGMLRGDFSLRLFNVTPQDEQKFHCLVLSASLGFQEVLSVEVTLHVAANFSVGSGGGGSEPKSSDKTHTCPPCPAPEAEGAPSVFLFPPKPKDTLMISRTPEVTCVVVDVSHEDPEVKFNWYVDGVEVHNAKTKPREEQYNSTYRVVSVLTVLHQDWLNGKEYKCKVSNKALPAPIEKTISKAKGQPREPQVYTLPPSREEMTKNQVSLTCLVKGFYPSDIAVEWESNGQPENNYKTTPPVLDSDGSFFLYSKLTVDKSRWQQGNVFSCSVMHEALHNHYTQKSLSLSPG; 350000
